experiment: oral PK; format: in vivo; details: in vivo, 10 mg/kg, free, read-out: C average (nM) free
// average free concentration at 24 h lookup, one value per entry
For clarity, give the value followed by its unit.

- compound: "COc1cc(OC)c2c(c1)O[C@@]1(c3ccc(Cl)cc3)[C@H](c3ccccc3)C[C@@H](O)[C@@]21O [Compound C-1, reference compound]"
  average free concentration at 24 h: "0.2 nM"

We now examine a further compound.
What value of average free concentration at 24 h has been recorded for this entry: COc1cc(OC)c2c(c1)O[C@@]1(c3ccc(C#N)cc3)[C@H](c3ccccc3)C[C@@H](O)[C@@]21O (single isomer, unassigned) 1.1 nM

###

experiment: iv (intravenous) PK; type: in vivo; conditions: in vivo, iv; 2 mg/kg
readout: Cmax (nM)
Report the figure in nM without appending any unit label.

What value of Cmax has been recorded for this entry: COc1cc(OC)c2c(c1)O[C@@]1(c3ccc(C#N)cc3)[C@H](c3cccc(F)c3)C[C@@H](O)[C@@]21O (single isomer, unassigned) 1200

And the next one, COc1cc(OC)c2c(c1)O[C@@]1(c3ccc(Cl)cc3)[C@H](c3ccccc3)C[C@@H](O)[C@@]21O [Compound C-1, reference compound] ? 1700

And the next one, COc1cc(OC)c2c(c1)O[C@@]1(c3ccc(C#N)cc3)[C@H](c3ccccc3)C[C@@H](O)[C@@]21O (single isomer, unassigned) ? 1700

###

biological target: NRAS G12V (Homo sapiens, UniProt P01111, G12V); construct: expressed in transfected cells; host or cells: HeLa; experiment: NanoBiT assay for RAS GTP-loading (LgBit-NRAS G12V / SmBit-CRAF-RBD) in HeLa cells; type: cell-based
Sequence (P01111 1-186 G12V limits assumed): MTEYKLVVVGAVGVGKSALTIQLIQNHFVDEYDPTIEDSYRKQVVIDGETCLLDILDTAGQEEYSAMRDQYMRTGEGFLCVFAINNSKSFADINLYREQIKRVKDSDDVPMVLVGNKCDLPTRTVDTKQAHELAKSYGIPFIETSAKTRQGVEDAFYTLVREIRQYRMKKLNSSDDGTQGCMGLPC
readout: IC50 (nM)
Report the figure in nM without appending any unit label.

What value of IC50 has been recorded for this entry: COc1cc(OC)c2c(c1)O[C@@]1(c3ccc(C#N)cc3)[C@H](c3cccc(F)c3)C[C@@H](O)[C@@]21O (single isomer, unassigned) 20.2

###

assay: oral PK; assay type: in vivo; conditions: in vivo, 50 mg/kg
// Cmax lookup, one value per entry

What value of Cmax has been recorded for this entry: COc1cc(OC)c2c(c1)O[C@@]1(c3ccc(C#N)cc3)[C@H](c3cccc(F)c3)C[C@@H](O)[C@@]21O (single isomer, unassigned) 4.1 µM

And the next one, COc1cc(OC)c2c(c1)O[C@@]1(c3ccc(Cl)cc3)[C@H](c3ccccc3)C[C@@H](O)[C@@]21O [Compound C-1, reference compound] ? 3.9 µM

###

// half-life lookup, one value per entry
test: iv (intravenous) PK; format: in vivo; details: in vivo, iv; 2 mg/kg, i.v.; read-out: T½ (converted)
Report the figure in min without appending any unit label.

Answered examples (2):
- compound: "COc1cc(OC)c2c(c1)O[C@@]1(c3ccc(C#N)cc3)[C@H](c3ccccc3)C[C@@H](O)[C@@]21O (single isomer, unassigned)"
  half-life [min]: 240
- compound: "COc1cc(OC)c2c(c1)O[C@@]1(c3ccc(Cl)cc3)[C@H](c3ccccc3)C[C@@H](O)[C@@]21O [Compound C-1, reference compound]"
  half-life [min]: 78

We now examine a further compound.
What value of half-life has been recorded for this entry: COc1cc(OC)c2c(c1)O[C@@]1(c3ccc(C#N)cc3)[C@H](c3cccc(F)c3)C[C@@H](O)[C@@]21O (single isomer, unassigned) 54

###

molecular target: KRAS G12V (Homo sapiens, UniProt P01116, G12V); construct: expressed in transfected cells; host or cells: HeLa; assay: NanoBiT assay for RAS GTP-loading (LgBit-KRAS G12V / SmBit-CRAF-RBD) in HeLa cells; assay type: cell-based; settings: IC50 (nM, KRAS G12V), as listed in the PK tables 1-4; assay not named
Sequence (P01116 1-186 isoform P01116-2 G12V limits assumed): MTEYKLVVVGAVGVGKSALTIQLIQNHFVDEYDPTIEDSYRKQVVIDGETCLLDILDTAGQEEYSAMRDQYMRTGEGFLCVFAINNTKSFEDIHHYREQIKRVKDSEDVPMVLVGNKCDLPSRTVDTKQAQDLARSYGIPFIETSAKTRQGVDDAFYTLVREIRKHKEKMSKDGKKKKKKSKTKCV
readout: IC50 (nM)
Report the figure in nM without appending any unit label.

- compound: "COc1cc(OC)c2c(c1)O[C@@]1(c3ccc(C#N)cc3)[C@H](c3ccccc3)C[C@@H](O)[C@@]21O (single isomer, unassigned)"
  unit.info: "nM"
  IC50: 5.4

What value of IC50 has been recorded for this entry: COc1cc(OC)c2c(c1)O[C@@]1(c3ccc(C#N)cc3)[C@H](c3cccc(F)c3)C[C@@H](O)[C@@]21O (single isomer, unassigned) 8.5

###

experiment: Unbound fraction in human plasma (equilibrium dialysis); type: in vitro ADME; details: pH 7.4, dialysis 4 hours at 37 °C
// fraction unbound at 4 h, 2 µM lookup, one value per entry
Number only, please.

- molecule: "COc1cc(OC)c2c(c1)O[C@@]1(c3ccc(C#N)cc3)[C@H](c3ccccc3)C[C@@H](O)[C@@]21O (single isomer, unassigned)"
  readout: "fraction unbound at 4 h, 2 µM"
  observed.value: 0.025

What value of fraction unbound at 4 h, 2 µM has been recorded for this entry: COc1cc(OC)c2c(c1)O[C@@]1(c3ccc(Cl)cc3)[C@H](c3ccccc3)C[C@@H](O)[C@@]21O [Compound C-1, reference compound] 0.009

And the next one, COc1cc(OC)c2c(c1)O[C@@]1(c3ccc(C#N)cc3)[C@H](c3cccc(F)c3)C[C@@H](O)[C@@]21O (single isomer, unassigned) ? 0.026

###

biological target: KRAS G12V (Homo sapiens, UniProt P01116, G12V); construct: expressed in transfected cells; host or cells: HeLa; experiment: NanoBiT assay for RAS GTP-loading (LgBit-KRAS G12V / SmBit-CRAF-RBD) in HeLa cells; type: cell-based; conditions: NanoBiT, HeLa cells, 2 h in serum-free DMEM; read-out: IC50 (nM) KRAS G12V
readout: IC50 (nM)
Report the figure in nM without appending any unit label.

What value of IC50 has been recorded for this entry: COc1cc(OC)c2c(c1)O[C@@]1(c3ccc(Cl)cc3)[C@H](c3ccccc3)C[C@@H](O)[C@@]21O [Compound C-1, reference compound] 56.6

###

biological target: HRAS G12V (Homo sapiens, UniProt P01112, G12V); construct: expressed in transfected cells; host or cells: HeLa; test: NanoBiT assay for RAS GTP-loading (LgBit-HRAS G12V / SmBit-CRAF-RBD) in HeLa cells; assay type: cell-based
Sequence (P01112 1-186 G12V limits assumed): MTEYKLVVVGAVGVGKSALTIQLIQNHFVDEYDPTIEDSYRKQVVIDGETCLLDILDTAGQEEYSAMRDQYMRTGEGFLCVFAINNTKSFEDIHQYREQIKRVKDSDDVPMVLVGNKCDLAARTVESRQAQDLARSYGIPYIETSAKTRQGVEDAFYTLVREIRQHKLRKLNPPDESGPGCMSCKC
readout: IC50
For clarity, give the value followed by its unit.

What value of IC50 has been recorded for this entry: COc1cc(OC)c2c(c1)O[C@@]1(c3ccc(C#N)cc3)[C@H](c3cccc(F)c3)C[C@@H](O)[C@@]21O (single isomer, unassigned) 0.0136 µM

###

// half-life lookup, one value per entry
assay: oral PK; assay type: in vivo; conditions: in vivo, 10 mg/kg, read-out: T½ (converted)
Report the figure in h without appending any unit label.

- molecule: "COc1cc(OC)c2c(c1)O[C@@]1(c3ccc(Cl)cc3)[C@H](c3ccccc3)C[C@@H](O)[C@@]21O [Compound C-1, reference compound]"
  observed.value: 1.7

We now examine a further molecule.
What value of half-life has been recorded for this entry: COc1cc(OC)c2c(c1)O[C@@]1(c3ccc(C#N)cc3)[C@H](c3ccccc3)C[C@@H](O)[C@@]21O (single isomer, unassigned) [Compound 2] 1.3

###

assay: oral PK; format: in vivo; conditions: in vivo, 50 mg/kg, read-out: T½ (converted)
// half-life lookup, one value per entry
Report the figure in h without appending any unit label.

- compound: "COc1cc(OC)c2c(c1)O[C@@]1(c3ccc(C#N)cc3)[C@H](c3cccc(F)c3)C[C@@H](O)[C@@]21O (single isomer, unassigned) [Compound 1]"
  half-life, h: 3.5

We now examine a further compound.
What value of half-life has been recorded for this entry: COc1cc(OC)c2c(c1)O[C@@]1(c3ccc(Cl)cc3)[C@H](c3ccccc3)C[C@@H](O)[C@@]21O [Compound C-1, reference compound] 2.7
